Collected pEC50 values appear next to each entry.
- study target: DCAF15 and RRM2 domain in RBM39 (Homo sapiens (Human), UniProt Q14498+Q66K64)
- Sequence (Q66K64 whole entry, the tested form may be a part): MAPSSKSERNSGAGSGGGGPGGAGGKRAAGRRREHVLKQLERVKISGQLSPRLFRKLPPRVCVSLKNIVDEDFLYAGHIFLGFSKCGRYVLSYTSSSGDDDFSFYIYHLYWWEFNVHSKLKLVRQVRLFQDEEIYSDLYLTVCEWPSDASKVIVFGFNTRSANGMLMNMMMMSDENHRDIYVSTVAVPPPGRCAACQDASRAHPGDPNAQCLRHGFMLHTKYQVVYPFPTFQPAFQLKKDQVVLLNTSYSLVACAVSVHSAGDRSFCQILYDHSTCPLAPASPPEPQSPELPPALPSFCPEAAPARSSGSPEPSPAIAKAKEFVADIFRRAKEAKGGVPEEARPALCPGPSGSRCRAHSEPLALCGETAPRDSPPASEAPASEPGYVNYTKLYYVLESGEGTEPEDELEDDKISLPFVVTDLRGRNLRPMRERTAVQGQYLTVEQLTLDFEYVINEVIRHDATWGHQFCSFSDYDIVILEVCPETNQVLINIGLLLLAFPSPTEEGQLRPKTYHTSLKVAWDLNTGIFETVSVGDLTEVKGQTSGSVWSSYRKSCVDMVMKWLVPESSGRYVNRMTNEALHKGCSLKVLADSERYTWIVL
- Sequence (Q14498 250-328): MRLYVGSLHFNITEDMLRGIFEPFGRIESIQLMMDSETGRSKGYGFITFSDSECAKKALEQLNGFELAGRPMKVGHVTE
- Sequence (Q16531 whole entry partner, the tested form may be a part): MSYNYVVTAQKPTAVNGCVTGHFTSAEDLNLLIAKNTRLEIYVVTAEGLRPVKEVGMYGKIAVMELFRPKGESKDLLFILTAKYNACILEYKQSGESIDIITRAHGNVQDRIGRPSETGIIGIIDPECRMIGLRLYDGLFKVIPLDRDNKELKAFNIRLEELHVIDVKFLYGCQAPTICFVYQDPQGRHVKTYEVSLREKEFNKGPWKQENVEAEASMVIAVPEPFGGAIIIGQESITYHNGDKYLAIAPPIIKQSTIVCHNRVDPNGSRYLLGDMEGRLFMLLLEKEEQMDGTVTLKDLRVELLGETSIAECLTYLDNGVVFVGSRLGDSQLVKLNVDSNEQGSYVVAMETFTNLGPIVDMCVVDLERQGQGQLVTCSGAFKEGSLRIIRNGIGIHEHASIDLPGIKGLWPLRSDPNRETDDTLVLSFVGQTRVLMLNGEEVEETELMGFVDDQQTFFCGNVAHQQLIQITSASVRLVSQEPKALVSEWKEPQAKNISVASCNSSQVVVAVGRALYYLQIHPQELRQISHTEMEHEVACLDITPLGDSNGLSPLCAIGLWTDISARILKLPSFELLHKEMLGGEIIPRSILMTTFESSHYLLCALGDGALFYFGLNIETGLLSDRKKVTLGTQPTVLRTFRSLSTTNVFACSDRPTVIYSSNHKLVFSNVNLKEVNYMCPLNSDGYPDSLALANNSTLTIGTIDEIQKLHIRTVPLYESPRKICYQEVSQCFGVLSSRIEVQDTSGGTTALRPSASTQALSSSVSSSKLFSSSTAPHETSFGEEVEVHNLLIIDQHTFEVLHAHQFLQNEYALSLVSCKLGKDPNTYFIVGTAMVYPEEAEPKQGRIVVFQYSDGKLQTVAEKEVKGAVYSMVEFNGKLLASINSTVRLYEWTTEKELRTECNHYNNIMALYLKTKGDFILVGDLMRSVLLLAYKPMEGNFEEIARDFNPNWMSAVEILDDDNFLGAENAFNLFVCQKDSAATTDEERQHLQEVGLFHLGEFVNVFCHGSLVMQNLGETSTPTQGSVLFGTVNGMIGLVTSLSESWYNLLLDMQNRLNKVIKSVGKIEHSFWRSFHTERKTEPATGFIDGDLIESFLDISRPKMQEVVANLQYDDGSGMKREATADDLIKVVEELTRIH
- experiment summary: TR-FRET biochemical assay, DCAF15 activity (recruitment of RBM39 RRM2 domain to DCAF15)
- applied conditions: TR-FRET 520/490 nm ratio; biotinylated DCAF15 200 nM, Bodipy-FL RBM39 RRM2 200 nM, Tb-streptavidin 2 nM
pEC50: −log10 of the molar value.

# count of solved cases: 5
Recall the reported pEC50 of CNC(=O)c1c[nH]c2c(NS(=O)(=O)c3cccc(C#N)c3)ccc(C)c12 when tested on DCAF15 and RRM2 domain in RBM39 (Homo sapiens (Human), UniProt Q14498+Q66K64).
< 5.00

Recall the reported pEC50 of N#Cc1cccc(S(=O)(=O)Nc2cccc3c(Cl)n[nH]c23)c1 when tested on DCAF15 and RRM2 domain in RBM39 (Homo sapiens (Human), UniProt Q14498+Q66K64).
< 5.00

Recall the reported pEC50 of N#Cc1cccc(S(=O)(=O)Nc2cccc3c2CNC3=O)c1 when tested on DCAF15 and RRM2 domain in RBM39 (Homo sapiens (Human), UniProt Q14498+Q66K64).
< 5.00

Recall the reported pEC50 of CCOC(=O)c1cc2cc(NS(=O)(=O)c3cccc(C#N)c3)ccc2[nH]1 when tested on DCAF15 and RRM2 domain in RBM39 (Homo sapiens (Human), UniProt Q14498+Q66K64).
< 5.00

Recall the reported pEC50 of Cc1ccc(NS(=O)(=O)c2cccc(C(F)(F)F)c2)c2[nH]cc(C#N)c12 when tested on DCAF15 and RRM2 domain in RBM39 (Homo sapiens (Human), UniProt Q14498+Q66K64).
5.00 to 6.00

More entries:
Recall the reported pEC50 of Cc1ccc(NS(=O)(=O)c2cccc(N)c2)c2[nH]cc(C#N)c12 when tested on DCAF15 and RRM2 domain in RBM39 (Homo sapiens (Human), UniProt Q14498+Q66K64).
5.00 to 6.00

Recall the reported pEC50 of Cc1ccc(NS(=O)(=O)c2cccc(C#N)c2)c2[nH]cc(Cl)c12 when tested on DCAF15 and RRM2 domain in RBM39 (Homo sapiens (Human), UniProt Q14498+Q66K64).
5.00 to 6.00

Recall the reported pEC50 of N#Cc1cccc(S(=O)(=O)Nc2ncnc3[nH]ccc23)c1 when tested on DCAF15 and RRM2 domain in RBM39 (Homo sapiens (Human), UniProt Q14498+Q66K64).
< 5.00

Recall the reported pEC50 of Cc1ccc(NS(C)(=O)=O)c2[nH]cc(C#N)c12 when tested on DCAF15 and RRM2 domain in RBM39 (Homo sapiens (Human), UniProt Q14498+Q66K64).
< 5.00
